Numbers sourced from ChEMBL document CHEMBL1155334.

- System: HL-60
- Assay Comment: Cell cycle arrest in human HL60 cells assessed as accumulation in G2/M phase at IC50 after 24 hrs by flow cytometry
- Format: functional
Reported Endpoint: Activity (%)

[
  {
    "Compound": "CN(C)CCN1C(=O)c2cccc3c(NCCCCCCNC(=O)c4ccc(N5CCN(CC=C(c6ccccc6)c6ccccc6)CC5)cc4)ccc(c23)C1=O",
    "Result Value": 16.44
  },
  {
    "Compound": "CN(C)CCN1C(=O)c2cccc3c(NCCCCCCN(CC=C(c4ccccc4)c4ccccc4)CC=C(c4ccccc4)c4ccccc4)ccc(c23)C1=O",
    "Result Value": 32.97
  },
  {
    "Compound": "CN(C)CCN1C(=O)c2cccc3cc(N)cc(c23)C1=O [AMONAFIDE]",
    "Result Value": 11.06
  },
  {
    "Compound": "CN(C)CCN1C(=O)c2cccc3c(NCCSc4ccccc4)ccc(c23)C1=O",
    "Result Value": 16.78
  },
  {
    "Compound": "CN(C)CCN1C(=O)c2cccc3c(N4CCSCC4)ccc(c23)C1=O",
    "Result Value": 26.81
  },
  {
    "Compound": "CN(C)CCN1C(=O)c2cccc3c(N4CCN(CC=C(c5ccccc5)c5ccccc5)CC4)ccc(c23)C1=O",
    "Result Value": 14.96
  },
  {
    "Compound": "CN(C)CCN1C(=O)c2cccc3c(N4CCN(C/C=C/c5ccccc5)CC4)ccc(c23)C1=O",
    "Result Value": 18.61
  },
  {
    "Compound": "CN(C)CCN1C(=O)c2cccc3c(NCc4cccs4)ccc(c23)C1=O",
    "Result Value": 17.9
  },
  {
    "Compound": "CN(C)CCN1C(=O)c2cccc3c(N4CCN(C/C=C/c5ccc(C#N)cc5)CC4)ccc(c23)C1=O",
    "Result Value": 33.08
  }
]
